- measured_target: T1, human G-CSF receptor (human, UniProt Q99062 25-836)
- T1 sequence (looked up): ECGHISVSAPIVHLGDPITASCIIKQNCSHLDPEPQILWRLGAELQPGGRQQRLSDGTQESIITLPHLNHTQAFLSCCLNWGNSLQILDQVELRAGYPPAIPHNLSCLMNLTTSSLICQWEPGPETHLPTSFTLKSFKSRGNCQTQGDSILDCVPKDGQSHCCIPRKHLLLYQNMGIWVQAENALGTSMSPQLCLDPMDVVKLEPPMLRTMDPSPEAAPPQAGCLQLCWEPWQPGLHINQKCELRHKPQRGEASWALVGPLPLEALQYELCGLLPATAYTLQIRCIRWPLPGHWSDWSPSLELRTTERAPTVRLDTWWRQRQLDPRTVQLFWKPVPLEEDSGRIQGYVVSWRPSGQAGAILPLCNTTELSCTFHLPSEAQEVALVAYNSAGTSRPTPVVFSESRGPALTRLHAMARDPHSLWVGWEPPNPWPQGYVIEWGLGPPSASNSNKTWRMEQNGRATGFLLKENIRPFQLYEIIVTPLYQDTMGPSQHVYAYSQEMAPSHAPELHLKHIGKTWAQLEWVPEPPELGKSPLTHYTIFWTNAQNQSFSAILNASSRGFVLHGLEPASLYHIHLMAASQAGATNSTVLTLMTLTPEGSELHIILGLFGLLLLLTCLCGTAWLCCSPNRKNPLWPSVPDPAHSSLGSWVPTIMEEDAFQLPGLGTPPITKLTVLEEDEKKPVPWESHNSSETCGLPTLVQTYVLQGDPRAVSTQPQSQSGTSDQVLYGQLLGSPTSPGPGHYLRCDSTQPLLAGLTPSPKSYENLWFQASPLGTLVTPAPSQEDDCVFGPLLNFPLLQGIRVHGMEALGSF
- test_name: cell-based or functional assay
// reported EC50 (% of hG-CSF) non-conjugated for each item listed

G-CSF variant K16/34/40R Q70K, non-conjugated (ligand) TPLGPASSLPQSFLLRCLEQVRKIQGDGAALQERLCATYRLCHPEELVLLGHSLGIPWAPLSSCPSQALKLAGCLSQLHSGLFLYQGLLQALEGISPELGPTLDTLQLDVADFATTIWQQMEELGMAPALQPTQGAMPAFASAFQRRAGGVLVASHLQSFLEVSYRVLRHLAQP has a reported EC50 (% of hG-CSF) non-conjugated of 30 % of hG-CSF

G-CSF variant K16/34/40R Q120K T133K S142K, non-conjugated (ligand) TPLGPASSLPQSFLLRCLEQVRKIQGDGAALQERLCATYRLCHPEELVLLGHSLGIPWAPLSSCPSQALQLAGCLSQLHSGLFLYQGLLQALEGISPELGPTLDTLQLDVADFATTIWQKMEELGMAPALQPKQGAMPAFAKAFQRRAGGVLVASHLQSFLEVSYRVLRHLAQP has a reported EC50 (% of hG-CSF) non-conjugated of 10 % of hG-CSF

G-CSF variant K16/34/40R Q90K T105K T133K, non-conjugated (ligand) TPLGPASSLPQSFLLRCLEQVRKIQGDGAALQERLCATYRLCHPEELVLLGHSLGIPWAPLSSCPSQALQLAGCLSQLHSGLFLYQGLLKALEGISPELGPTLDKLQLDVADFATTIWQQMEELGMAPALQPKQGAMPAFASAFQRRAGGVLVASHLQSFLEVSYRVLRHLAQP has a reported EC50 (% of hG-CSF) non-conjugated of 10 % of hG-CSF

G-CSF variant K16/34/40R Q70K Q90K T133K, non-conjugated (ligand) TPLGPASSLPQSFLLRCLEQVRKIQGDGAALQERLCATYRLCHPEELVLLGHSLGIPWAPLSSCPSQALKLAGCLSQLHSGLFLYQGLLKALEGISPELGPTLDTLQLDVADFATTIWQQMEELGMAPALQPKQGAMPAFASAFQRRAGGVLVASHLQSFLEVSYRVLRHLAQP has a reported EC50 (% of hG-CSF) non-conjugated of 15 % of hG-CSF

G-CSF variant K16/23/40R, non-conjugated (ligand) TPLGPASSLPQSFLLRCLEQVRRIQGDGAALQEKLCATYRLCHPEELVLLGHSLGIPWAPLSSCPSQALQLAGCLSQLHSGLFLYQGLLQALEGISPELGPTLDTLQLDVADFATTIWQQMEELGMAPALQPTQGAMPAFASAFQRRAGGVLVASHLQSFLEVSYRVLRHLAQP has a reported EC50 (% of hG-CSF) non-conjugated of 50 % of hG-CSF

Origin of measurements: patent US20030118612A1
